relative cleavage efficiency by entry:
# System name: fusion protein PRM
# Sequence (chain, as listed by the source): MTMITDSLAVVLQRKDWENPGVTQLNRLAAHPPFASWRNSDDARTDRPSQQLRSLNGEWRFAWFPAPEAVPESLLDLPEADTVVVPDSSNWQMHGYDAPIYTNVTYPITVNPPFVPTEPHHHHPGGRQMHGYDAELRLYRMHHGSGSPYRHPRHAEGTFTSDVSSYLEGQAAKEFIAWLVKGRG

>  <Protein>
OmpT protease variant OmpT D97E (protein) STETLSFTPDNINADISLGTLSGKTKERVYLAEEGGRKVSQLDWKFNNAAIIKGAINWDLMPQISIGAAGWTTLGSRGGNMVDQDWMDSSNPGTWTEESRHPDTQLNYANEFDLNIKGWLLNEPNYRLGLMAGYQESRYSFTARGGSYIYSSEEGFRDDIGSFPNGERAIGYKQRFKMPYIGLTGSYRYEDFELGGTFKYSGWVESSDNDEHYDPGKRITYRSKVKDQNYYSVAVNAGYYVTPNAKVYVEGAWNRVTNKKGNTSLYDHNNNTSDYSKNGAGIENYNFITTAGLKYTF

>  <Measurement type>
relative cleavage efficiency

>  <Test value>
< 3%

$$$$

Now consider the entry below.
QUERY: Which relative cleavage efficiency is listed for OmpT protease variant OmpT D97C (protein) STETLSFTPDNINADISLGTLSGKTKERVYLAEEGGRKVSQLDWKFNNAAIIKGAINWDLMPQISIGAAGWTTLGSRGGNMVDQDWMDSSNPGTWTCESRHPDTQLNYANEFDLNIKGWLLNEPNYRLGLMAGYQESRYSFTARGGSYIYSSEEGFRDDIGSFPNGERAIGYKQRFKMPYIGLTGSYRYEDFELGGTFKYSGWVESSDNDEHYDPGKRITYRSKVKDQNYYSVAVNAGYYVTPNAKVYVEGAWNRVTNKKGNTSLYDHNNNTSDYSKNGAGIENYNFITTAGLKYTF ?
RESULT: < 3%

Value source: patent US20070077617
